All figures here come from ChEMBL document CHEMBL1201862.

# GI50 values compiled below
- Test system: MDA-MB-231
- experiment.notes: NCI tumour cell line growth inhibition, 48 h
Calls of active or inactive are those of the source. Cut-off read from the data, not from the text of the source: active = GI50 up to about 1.1 µM and inactive = higher.

Consider the reported GI50 for these compounds:
CCC(C)C1NC(=O)C2CCCN2C(=O)C(CC2CO2)OC(=O)CCNC(=O)C(C)N(C)C(=O)C(C(C)C)N(C)C1=O (centres undefined): > 22.9 µM (inactive)
SC1=NC2=C(CSC/C2=C\c2ccccc2)C(c2ccccc2)N1 (centres undefined): 45.1 µM (inactive)
COc1cc(NCc2ccc3nc(OC)c(OC)nc3c2)cc(OC)c1OC: > 100 µM (inactive)

Now consider the entry below.
So what's the measured GI50 for this one? COC(=O)CC1C2(C)C3=C(C)C(c4ccoc4)CC3OC2C2OC(=O)C3(C)C=CC(=O)C1(C)C23 (centres undefined)
1.22 µM (inactive)
